Target: T1, human collagen type I, acid soluble, extracted from placenta (Sigma C7774) (human, UniProt P02452 162-1218; P08123 80-1119)
T1 construct: tissue extract, gelled and dried in wells; also called dried human collagen; h-Collagen
T1 sequence (P02452 162-1218 limits assumed, chain 1 of 2): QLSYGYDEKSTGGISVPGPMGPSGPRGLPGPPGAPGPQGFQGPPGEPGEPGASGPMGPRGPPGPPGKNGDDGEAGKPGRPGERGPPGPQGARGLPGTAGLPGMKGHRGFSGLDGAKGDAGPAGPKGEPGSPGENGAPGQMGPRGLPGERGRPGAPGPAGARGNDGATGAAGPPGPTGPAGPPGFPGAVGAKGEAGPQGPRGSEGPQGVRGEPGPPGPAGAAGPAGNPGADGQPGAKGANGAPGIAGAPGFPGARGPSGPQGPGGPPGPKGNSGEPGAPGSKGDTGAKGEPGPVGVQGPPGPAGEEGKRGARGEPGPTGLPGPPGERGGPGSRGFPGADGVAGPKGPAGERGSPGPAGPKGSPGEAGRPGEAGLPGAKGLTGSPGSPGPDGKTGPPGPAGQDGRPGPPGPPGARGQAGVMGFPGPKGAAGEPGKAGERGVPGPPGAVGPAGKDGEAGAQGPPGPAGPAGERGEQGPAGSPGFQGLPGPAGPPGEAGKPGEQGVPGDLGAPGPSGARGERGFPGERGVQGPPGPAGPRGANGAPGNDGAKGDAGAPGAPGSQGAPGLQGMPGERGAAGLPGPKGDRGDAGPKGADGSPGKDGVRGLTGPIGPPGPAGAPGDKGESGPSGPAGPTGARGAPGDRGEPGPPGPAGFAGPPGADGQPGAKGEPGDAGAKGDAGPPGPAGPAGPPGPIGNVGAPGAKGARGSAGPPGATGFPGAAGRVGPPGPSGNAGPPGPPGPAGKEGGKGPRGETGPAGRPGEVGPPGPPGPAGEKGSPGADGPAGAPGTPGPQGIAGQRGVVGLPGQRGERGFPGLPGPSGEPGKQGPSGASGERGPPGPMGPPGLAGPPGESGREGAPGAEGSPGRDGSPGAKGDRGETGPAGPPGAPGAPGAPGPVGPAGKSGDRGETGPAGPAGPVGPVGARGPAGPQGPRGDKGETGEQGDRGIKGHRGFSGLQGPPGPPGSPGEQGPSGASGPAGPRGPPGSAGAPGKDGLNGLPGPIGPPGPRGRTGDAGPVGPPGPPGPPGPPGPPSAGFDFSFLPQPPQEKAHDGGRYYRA
T1 sequence (P08123 80-1119 limits assumed, chain 2 of 2): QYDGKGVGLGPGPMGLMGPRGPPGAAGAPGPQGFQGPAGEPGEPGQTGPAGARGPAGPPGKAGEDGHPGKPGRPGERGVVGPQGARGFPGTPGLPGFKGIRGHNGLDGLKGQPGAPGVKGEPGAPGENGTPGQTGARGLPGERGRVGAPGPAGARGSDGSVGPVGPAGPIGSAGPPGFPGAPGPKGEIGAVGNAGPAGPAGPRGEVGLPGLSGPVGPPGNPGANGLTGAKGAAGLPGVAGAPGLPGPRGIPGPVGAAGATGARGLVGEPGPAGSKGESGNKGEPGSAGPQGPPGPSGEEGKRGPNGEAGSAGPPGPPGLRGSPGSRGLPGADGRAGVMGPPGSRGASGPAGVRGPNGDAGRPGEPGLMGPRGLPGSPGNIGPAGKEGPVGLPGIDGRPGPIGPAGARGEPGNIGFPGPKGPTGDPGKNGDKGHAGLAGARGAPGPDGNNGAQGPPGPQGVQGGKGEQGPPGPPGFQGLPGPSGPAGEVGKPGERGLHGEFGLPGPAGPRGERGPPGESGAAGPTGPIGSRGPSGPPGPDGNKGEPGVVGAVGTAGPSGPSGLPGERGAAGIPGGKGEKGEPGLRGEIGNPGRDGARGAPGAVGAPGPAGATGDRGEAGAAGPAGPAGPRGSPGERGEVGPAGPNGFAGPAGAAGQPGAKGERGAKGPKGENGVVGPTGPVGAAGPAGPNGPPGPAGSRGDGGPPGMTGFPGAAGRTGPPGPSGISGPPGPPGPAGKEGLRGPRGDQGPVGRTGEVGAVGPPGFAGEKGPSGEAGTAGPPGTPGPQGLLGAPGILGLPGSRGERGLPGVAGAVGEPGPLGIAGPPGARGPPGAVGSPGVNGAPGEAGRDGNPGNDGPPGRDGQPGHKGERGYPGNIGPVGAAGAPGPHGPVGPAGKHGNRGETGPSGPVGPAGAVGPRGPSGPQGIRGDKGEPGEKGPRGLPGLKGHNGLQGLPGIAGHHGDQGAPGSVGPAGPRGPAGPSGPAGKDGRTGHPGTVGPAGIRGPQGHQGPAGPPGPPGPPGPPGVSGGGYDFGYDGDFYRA
Assay: dried collagen assay; also: test concentration or dose not given here
Bridge positions count the residues as written; N and C are the ends. Square brackets hold non-standard residues; d marks the D form. Ends that are not written are not given here.
parameter: % bound (%)

>>> numeric_readout("FGACDIFPTFHTCPGV (disulfide 4-13 (inferred), cyclic, disulfide) [SEQ ID NO 76]")
1
>>> numeric_readout("SWHCALVENSWQCSEA (disulfide 4-13 (inferred), cyclic, disulfide) [SEQ ID NO 73]")
1

A. KWSCYMVDHQWYCREF (disulfide 4-13 (inferred), cyclic, disulfide) [SEQ ID NO 61]
B. DWTCS[dA]DEYTWHCNYE (disulfide 4-13 (inferred), cyclic, disulfide) [SEQ ID NO 179]
Task: Which record would sort first by descending % bound, A or B ? Field: selected label. Fill in the label of the entry you choose.
Result: B
